- Study target: T1, human LAG-3 on cells (HEK293-hLAG-3 stable cell line) (human, UniProt P18627 23-525)
- T1 sequence: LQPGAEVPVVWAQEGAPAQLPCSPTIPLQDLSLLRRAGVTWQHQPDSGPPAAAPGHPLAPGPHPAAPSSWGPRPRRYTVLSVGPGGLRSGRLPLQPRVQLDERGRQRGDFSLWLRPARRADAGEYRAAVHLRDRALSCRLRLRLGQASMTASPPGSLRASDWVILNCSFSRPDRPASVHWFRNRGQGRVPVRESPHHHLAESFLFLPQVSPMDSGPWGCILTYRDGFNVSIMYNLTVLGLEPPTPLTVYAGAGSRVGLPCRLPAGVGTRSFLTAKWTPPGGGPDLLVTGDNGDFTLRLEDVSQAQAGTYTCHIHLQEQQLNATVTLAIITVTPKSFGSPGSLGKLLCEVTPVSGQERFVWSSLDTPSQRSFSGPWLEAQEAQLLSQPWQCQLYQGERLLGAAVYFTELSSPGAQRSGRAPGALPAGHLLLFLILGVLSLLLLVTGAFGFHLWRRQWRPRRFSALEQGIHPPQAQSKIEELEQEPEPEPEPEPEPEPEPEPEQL
- Assay details: FACS, HEK293-hLAG-3, antibody 0.013 nM
Mean fluorescence intensity overview
Answer field: number only, no words.

1. 405B8H3-4 humanized antibody (antibody, V domains shown) VH: QVQLVQSGAEVKKPGASVKVSCKASGYTFTDYEMHWVKQAPGQGLEWIGATDPETGNSAYNQKFKGKATMTADKSTSTAYMELSSLRSEDTAVYYCISTGWNDWGQGTTVTVSS VL: DIQMTQSPSSLSASVGDRVTITCKASQDINSYLSWFQQKPGKAPKSLIYRADRLLDGVPSRFSGSGSGTDFTLTISSLQPEDFATYYCLQYDEFPYTFGQGTKLEIK: 10
2. 405B8H3-8 humanized antibody (antibody, V domains shown) VH: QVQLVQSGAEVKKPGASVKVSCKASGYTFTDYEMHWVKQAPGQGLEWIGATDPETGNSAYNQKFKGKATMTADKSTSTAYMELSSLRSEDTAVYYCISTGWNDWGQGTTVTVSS VL: DIQMTQSPSSLSASVGDRVTITCKASQDINSYLSWFQQKPGKAPKSLIYRADRLLDGVPSRFSGSGSGQDYTLTISSLQPEDFATYYCLQYDEFPYTFGQGTKLEIK: 8
3. 405B8H3-2 humanized antibody (antibody, V domains shown) VH: QVQLVQSGAEVKKPGASVKVSCKASGYTFTDYEMHWVRQAPGQGLEWMGATDPETGNSAYNQKFKGRVTMTADKSTSTVYMELSSLRSEDTAVYYCISTGWNDWGQGTTVTVSS VL: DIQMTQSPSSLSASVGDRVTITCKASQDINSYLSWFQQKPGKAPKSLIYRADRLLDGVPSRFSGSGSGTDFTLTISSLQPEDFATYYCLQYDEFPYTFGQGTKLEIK: 11
4. 405B8H3-12 humanized antibody (antibody, V domains shown) VH: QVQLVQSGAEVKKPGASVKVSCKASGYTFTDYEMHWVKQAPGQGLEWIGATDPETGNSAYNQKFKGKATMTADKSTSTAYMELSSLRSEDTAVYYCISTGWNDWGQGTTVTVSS VL: DIKMTQSPSSLSASVGDRVTITCKASQDINSYLSWFQQKPGKSPKSLIYRADRLLDGVPSRFSGSGSGQDYTLTISSLQPEDFATYYCLQYDEFPYTFGQGTKLEIK: 11
5. 405B8H3-11 humanized antibody (antibody, V domains shown) VH: QVQLVQSGAEVKKPGASVKVSCKASGYTFTDYEMHWVRQAPGQGLEWIGATDPETGNSAYNQKFKGRATMTADKSTSTAYMELSSLRSEDTAVYYCISTGWNDWGQGTTVTVSS VL: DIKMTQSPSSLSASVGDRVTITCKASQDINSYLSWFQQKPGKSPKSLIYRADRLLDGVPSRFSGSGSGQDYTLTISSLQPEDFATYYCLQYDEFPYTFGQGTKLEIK: 11

Request the reported Mean fluorescence intensity associated with 405B8H3-10 humanized antibody (antibody, V domains shown) VH: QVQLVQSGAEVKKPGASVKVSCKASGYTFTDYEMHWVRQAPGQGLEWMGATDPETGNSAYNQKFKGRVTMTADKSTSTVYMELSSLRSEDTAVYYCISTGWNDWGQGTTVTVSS VL: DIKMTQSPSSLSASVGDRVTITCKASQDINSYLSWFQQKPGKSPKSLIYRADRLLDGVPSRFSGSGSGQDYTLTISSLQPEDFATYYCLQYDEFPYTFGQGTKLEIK
11

Request the reported Mean fluorescence intensity associated with 405B8H3-7 humanized antibody (antibody, V domains shown) VH: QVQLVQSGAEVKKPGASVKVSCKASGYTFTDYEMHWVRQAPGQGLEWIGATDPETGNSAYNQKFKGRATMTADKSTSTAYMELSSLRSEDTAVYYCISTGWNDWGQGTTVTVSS VL: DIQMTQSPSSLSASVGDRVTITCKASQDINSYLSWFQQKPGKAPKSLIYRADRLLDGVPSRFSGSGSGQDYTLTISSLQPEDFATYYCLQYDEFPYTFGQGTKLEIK
9
